Experiment: Example 1: multiple-dose randomized 3-way crossover PK study of two IV tramadol regimens vs 100 mg oral q6h
Conditions: human, plasma, po, 100 mg, AUCtau n, 100 mg oral q6h to h 42; last dosing interval; mean
Where a name gives a salt, the structure may show the parent alone.
REPORTED_ENDPOINT: AUC

// lookup AUC for COc1cccc([C@]2(O)CCCC[C@H]2CN(C)C)c1 (racemic) [Tramadol, hydrochloride]
3480 ng·h/mL

====

Experiment: Example 1: multiple-dose randomized 3-way crossover PK study of two IV tramadol regimens vs 100 mg oral q6h
Conditions: human, plasma, po, 100 mg, AUC24-48, 100 mg oral q6h to h 42, mean
Structures can show the parent of a compound that is named as a salt.
REPORTED_ENDPOINT: AUC (ng·h/mL)
Number only, in ng·h/mL; omit the unit.

// lookup AUC for COc1cccc([C@]2(O)CCCC[C@H]2CN(C)C)c1 (racemic) [Tramadol, hydrochloride]
11600

====

Assay: Example 4: multiple dose steady-state dose proportionality study, tramadol injection 50/100 mg IV and Ultram tablet 50/100 mg oral q6h
Format: in vivo, human
Conditions: human, plasma, iv, 50 mg
Counter-ions that a name gives are not always drawn.
REPORTED_ENDPOINT: AUC(0-inf)
# include the unit after the value

// lookup AUC(0-inf) for COc1cccc([C@]2(O)CCCC[C@H]2CN(C)C)c1 (racemic) [Tramadol, hydrochloride]
4040 ng·h/mL

====

Assay: Example 1: multiple-dose randomized 3-way crossover PK study of two IV tramadol regimens vs 100 mg oral q6h
Conditions: human, plasma, iv, 50 mg, plasma concentration, Mean, 50 mg IV Dose (h 0, 2, 4, then q4h to h 44); Time 2.00 hr
Where a name gives a salt, the structure may show the parent alone.
REPORTED_ENDPOINT: concentration at 2 h

// lookup concentration at 2 h for COc1cccc([C@]2(O)CCCC[C@H]2CN(C)C)c1 (racemic) [Tramadol, hydrochloride]
188 ng/mL

====

Experiment: Example 1: multiple-dose randomized 3-way crossover PK study of two IV tramadol regimens vs 100 mg oral q6h
Settings: human, plasma, iv, 75 mg, Tmax, 75 mg IV regimen (h 0, 3, 6, then q6h to h 42); plasma, mean
Counter-ions that a name gives are not always drawn.
REPORTED_ENDPOINT: Tmax
# include the unit after the value

// lookup Tmax for COc1cccc([C@]2(O)CCCC[C@H]2CN(C)C)c1 (racemic) [Tramadol, hydrochloride]
15.9 h

====

Test: Example 1: multiple-dose randomized 3-way crossover PK study of two IV tramadol regimens vs 100 mg oral q6h
Settings: human, plasma, iv, 75 mg, AUCtau n, 75 mg IV regimen (h 0, 3, 6, then q6h to h 42); last dosing interval; mean
Where a name gives a salt, the structure may show the parent alone.
REPORTED_ENDPOINT: AUC (ng·h/mL)
Number only, in ng·h/mL; omit the unit.

// lookup AUC for COc1cccc([C@]2(O)CCCC[C@H]2CN(C)C)c1 (racemic) [Tramadol, hydrochloride]
3040

====

Assay: Example 1: multiple-dose randomized 3-way crossover PK study of two IV tramadol regimens vs 100 mg oral q6h
Details: human, plasma, iv, 75 mg, Tmax(42-48), 75 mg IV regimen (h 0, 3, 6, then q6h to h 42); plasma, mean
Structures can show the parent of a compound that is named as a salt.
REPORTED_ENDPOINT: Tmax (h)
Number only, in h; omit the unit.

// lookup Tmax for COc1cccc([C@]2(O)CCCC[C@H]2CN(C)C)c1 (racemic) [Tramadol, hydrochloride]
42.4
